Below, each entry is listed with its recorded ELISA OD.
- measurement.target: rat MCP-1 (rat, UniProt P14844 24-148)
- Sequence (P14844 24-148 limits assumed): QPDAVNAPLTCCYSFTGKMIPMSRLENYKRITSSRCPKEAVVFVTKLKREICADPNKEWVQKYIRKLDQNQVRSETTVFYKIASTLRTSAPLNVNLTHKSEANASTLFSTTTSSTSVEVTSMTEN
- experiment.notes: ELISA, coated antigen
Answer format: value, then unit.

Please review the following examples before continuing.
binder	ELISA OD
anti-MCP-1 mAb 3.2 (antibody, V domains shown, also called 3.2 (neat)) VH: QVQLVQSGAEVKKPGASVKVSCKVSGYTLSELSMHWVRQAPGKGLEWMGGFDPEDGEIIHAQKFQGRVTMTEDTSTDTAYMELSSLRSEDTAVYYCATGDFWSGYYLDWWGQGTLVTVSS VL: EIVMMQSPATLSVSPGERATLSCRASQSVNSNLAWYQQKPGQAPRLLINGASTRATGIPARFSGSGSGTEFTLTISSLQSEDFAIYYCQQYNDWPTFTFGGGTKVEINR	0.07 OD450
anti-MCP-1 mAb 1.8.1 (antibody, V domains shown) VH: QVQLVQSGAEVKKPGASVKVSCKVSGHIFTELSIHWVRQAPGKGLEWMGGFDPEDGETIYAQKFQGRVTMTEDTSTDTVYMELSSLRSEDTAVYYCATNDFWSGYFDYWGQGTLVTVSS VL: DIVMTQSPGSLAVSLGERATINCKSSQSILFRSNNKNYLTWYQQKPGQPPKLLIYWASIRESGVPDRFSGSGSGSNFTLTITSLQAEDVAIYYCQQYYSSPWTFGQGTKVEIKR	0.049 OD450
anti-MCP-1 mAb 3.16.1 (antibody, V domains shown) VH: QVQLVQSGAEVKKPGASVKVSCKVSGYTLTDLSMHWVRQAPGKGLEWMGGFDPEDGETIYAQKFQGRVTMTEDTSSDTAYMELSSLRSEDTAVYYCATHEFWSGYFDYWGQGTLVTVSS VL: DIVMTQSPDSLAVSLGERATINCKSSQSVLFSSNNKSYLTWYQQKPGQPPKLLIFWASIRESGVPDRISGSGSGTDLTLTISSLQAEDAAVYYCQQYYSSPWTFGQGTKVEIKR	0.046 OD450
anti-MCP-1 mAb 3.11.1 (antibody, human IgG4, kappa, V domains shown) VH: QVQLQESGPGLVKPSQTLSLTCTVSGGSISSGGNYWNWIRQHPGKGLEWIGYIYYSGNTYYNPSLKSRITISIDTSKNQFSLTLSSVTAADTAVYYCARDGGDDAFDIWGQGTMVTVSS VL: DIQMTQSPSSLSASVGDRVTITCQASQDISNYLNWYQQKPGKAPKLLIYDASNLETGVPSRFSGSGSGTDFTFTINSLQPEDIATYYCQEYNNLPYSFGQGTKLEIKR	0.057 OD450

--- query ---
Give its ELISA OD value. Item: anti-MCP-1 mAb 5.3.1 (antibody, V domains shown) VH: QVQLVQSGAEVKKPGASVKVSCKVSGYTLSELSMHWVRQAPGKGLEWMGGFDPEDGETIYAQKFQGRVTMTEDTSTDTAYMELSSLRSEDTAVFYCATKREYSGYFDYWGQGTLVTVSS VL: DIVMTQSPDSLAVSLGERATINCKSSQSVLYSSNSKNYLAWFQQKPGQPPKLLIYWASTRESGVPDRFSGSGSGTDFTLTISRLQAEDVAVYSCQQYFITPWTFGQGTKVELKR
0.047 OD450
